Source listed as paper PMC7210945.

biological target: StGyrA-CTD R667A R667A (Salmonella enterica serovar Typhi CT18); assay: fluorescence binding
Readout type: pKd
The scale used: pKd is minus the common logarithm of the concentration in molar units.

Input line: # lookup: pKd of TAAAGTCTAGAGACACGCATAGTCAATGACGGAGTTA (double strand) [FAM-37 bp DNA]
Output line: 6.58

---

biological target: StGyrA-CTD R766A R766A (Salmonella enterica serovar Typhi CT18); experiment: fluorescence binding
Readout type: Kd (nM)
Hi! Could you send only the number? It should be in nM, unit omitted.

Input line: # lookup: Kd of TAAAGTCTAGAGACACGCATAGTCAATGACGGAGTTA (double strand) [FAM-37 bp DNA]
Output line: 221

---

target: StGyrA-CTD R817A R817A (Salmonella enterica serovar Typhi CT18); assay: fluorescence binding
Readout type: Kd

Input line: Requested read-out Kd, target or system StGyrA-CTD R817A R817A (Salmonella enterica serovar Typhi CT18), entry TAAAGTCTAGAGACACGCATAGTCAATGACGGAGTTA (double strand) [FAM-37 bp DNA]
Output line: 204 nM
